- protocol.summary: Pharmacokinetic study in rats after oral administration of SYD extract and its single and combined TCM extracts (UPLC-MS/MS of plasma)
- condition.label: male, Sprague-Dawley, rat, plasma, po, 3.38 g/kg extract (6.67 g/kg as herbs), MRT(0–t), rat plasma, oral SN + GU extract, n = 6
measured.parameter: MRT last (h)

compound: COc1ccc(CCO[C@@H]2O[C@H](CO[C@@H]3OC[C@H](O)[C@H](O)[C@H]3O)[C@@H](OC(=O)/C=C/c3ccc(O)c(OC)c3)[C@H](O[C@@H]3O[C@@H](C)[C@H](O)[C@@H](O)[C@H]3O)[C@H]2O)cc1O [Angoroside C, angoroside C]
unit.of.measure: h
observed: 2.86
--
compound: C[C@]1(OC(=O)/C=C/c2ccccc2)C[C@@H](O)[C@]2(O)C=CO[C@@H](O[C@@H]3O[C@H](CO)[C@@H](O)[C@H](O)[C@H]3O)[C@@H]21 [Harpagoside, harpagoside]
unit.of.measure: h
observed: 5.72
--
compound: O=C1C[C@@H](c2ccc(O[C@@H]3O[C@H](CO)[C@@H](O)[C@H](O)[C@H]3O)cc2)Oc2cc(O)ccc21 [Liquiritin, liquiritin]
unit.of.measure: h
observed: 2.48
